pIC50 reference
biological target: rat follicle stimulating hormone receptor (rFSHR) (Rattus norvegicus); assay: Intracellular cAMP measurement (HTRF) assay, antagonism of EC70 of hFSH; conditions: HEK293 cells expressing rFSHR, 1 ng/ml hFSH (EC70), read-out: Class (IC50 to antagonise an EC70 of FSH receptors agonist such as hFSH)
Sequence (P20395 18-692): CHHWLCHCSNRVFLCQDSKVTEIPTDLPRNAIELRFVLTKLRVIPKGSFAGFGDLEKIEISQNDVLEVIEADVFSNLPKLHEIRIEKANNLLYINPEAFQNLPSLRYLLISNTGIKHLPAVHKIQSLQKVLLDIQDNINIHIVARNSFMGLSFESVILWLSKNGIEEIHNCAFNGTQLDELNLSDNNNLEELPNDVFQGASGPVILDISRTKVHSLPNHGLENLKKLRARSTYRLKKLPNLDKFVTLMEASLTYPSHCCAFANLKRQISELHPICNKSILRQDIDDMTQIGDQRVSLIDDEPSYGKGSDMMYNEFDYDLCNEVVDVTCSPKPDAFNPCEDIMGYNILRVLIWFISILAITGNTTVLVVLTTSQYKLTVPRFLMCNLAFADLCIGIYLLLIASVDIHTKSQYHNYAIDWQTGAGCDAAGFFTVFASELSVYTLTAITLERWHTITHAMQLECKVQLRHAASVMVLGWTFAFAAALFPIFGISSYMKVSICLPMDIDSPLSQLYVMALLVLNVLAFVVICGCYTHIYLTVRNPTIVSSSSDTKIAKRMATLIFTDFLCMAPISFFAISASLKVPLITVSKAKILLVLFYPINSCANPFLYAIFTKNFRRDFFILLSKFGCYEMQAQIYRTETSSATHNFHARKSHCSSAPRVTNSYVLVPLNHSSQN
pIC50: −log10 of the molar value.

Worked set:
COc1ccc(C(=O)Nc2ccc(C(C)(C)CNC(=O)c3ccc4[nH]ccc4c3)cc2)cc1OC; 6.40 to 6.82
COc1ccc(C(=O)Nc2ccc(C(C)(C)CNC(=O)CCc3ccccc3)cc2)cc1OC; 6.40 to 6.82
COc1ccc(C(=O)Nc2ccc(C(C)(C)CNC(=O)c3ccsc3)cc2)cc1OC; 6.40 to 6.82
COc1ccc(C(=O)Nc2ccc(C(C)(C)CNC(=O)c3ccc4[nH]cnc4c3)cc2)cc1OC; 6.40 to 6.82
COc1ccc(C(=O)Nc2ccc(C(C)(C)C#N)c(-c3cncnc3)c2)cc1OC; ≤ 6.00

Shifting focus to the molecule that follows.
Entry COc1ccc(C(=O)Nc2ccc(C(C)(C)CNC(=O)c3cnn4ccccc34)cc2)cc1OC : reported pIC50 = ?
> 6.82
